Origin of the recorded values: the supplement of paper PMC11451515

Give cell viability for every item shown.
# System: NOMO1
# assay explanation: cell viability relative to DMSO control; higher = less cytotoxic
# measurement parameters: RPMI 5 mM glucose + 10% dialyzed FBS; 48 h; 0.19 µM
Numbers only, in %.

Return reported cell viability. Input molecule: "COc1cc(N2CCN(C)CC2)ccc1Nc1nc(N)c(C(=O)c2c(Cl)cccc2Cl)s1"
114

Return reported cell viability. Input molecule: "O=C(CCCN1CCC(O)(c2ccc(Cl)cc2)CC1)c1ccc(F)cc1"
115

Return reported cell viability. Input molecule: "OC(=O)CNC(=O)\C1=C(/O)C2=CC=CC=C2N(CC3=CC=CC=C3)C1=O"
94

Return reported cell viability. Input molecule: "CO[C@H]1C[C@@H]2CC[C@@H](C)[C@@](O)(O2)C(=O)C(=O)N2CCCC[C@H]2C(=O)O[C@H]([C@@H](C)C[C@@H]2CC[C@@H](O)[C@H](OC)C2)CC(=O)[C@H](C)/C=C(\C)[C@@H](O)[C@@H](OC)C(=O)[C@H](C)C[C@H](C)/C=C/C=C/C=C/1C"
117

Return reported cell viability. Input molecule: "CC(C)(Sc1cc(C(C)(C)C)c(O)c(C(C)(C)C)c1)Sc1cc(C(C)(C)C)c(O)c(C(C)(C)C)c1"
105

Return reported cell viability. Input molecule: "Cc1cc(/C=c2/sc3nc4ccccc4n3c2=O)c(C)n1-c1ccccc1"
127

Give cell viability for each listed item.
1. COCC(=O)NC/C=C/c1ccc2ncnc(Nc3ccc(Oc4ccc(C)nc4)c(C)c3)c2c1
2. CC[C@H](CO)Nc1nc(NCc2ccccc2)c2ncn(C(C)C)c2n1
3. CC[C@H](C)C(=O)O[C@H]1C[C@@H](C)\C=C2\C=C/[C@H](C)[C@H](CC[C@@H]3C[C@@H](O)CC(=O)O3)[C@@H]12
4. C=C1CCC2[C@](C)(CO)C(O)CC[C@]2(C)C1C/C=C1/C(=O)OCC1O (stereo partly specified)
5. C/C=C(\C)C(=O)N[C@@H](c1ccccc1)[C@@H](O)C(=O)O[C@H]1C[C@@]2(O)[C@@H](OC(=O)c3ccccc3)[C@@H]3[C@]4(OC(C)=O)CO[C@@H]4C[C@H](O)[C@@]3(C)C(=O)[C@H](OC(C)=O)C(=C1C)C2(C)C
6. CCC[C@H](Nc1nc(-c2ccc(NC(=O)NCC)c(OC)c2)ncc1C)c1cccnc1
7. O=C(O)c1cccc(-c2noc(-c3ccccc3F)n2)c1
8. CC(C)[C@]12O[C@H]1[C@@H]3O[C@@]34[C@@]5(C)CC\C6=C(COC6=O)/[C@@H]5C[C@@H]7O[C@]47[C@@H]2O

92.2
86.2
91
107
20.3
35.3
98.9
6.39

Give cell viability for each listed item.
1. N#CC1(c2cccc(C(=O)Nc3cc(Oc4ccc5nc(NC(=O)C6CC6)sc5n4)ccc3F)c2Cl)CC1
2. CCN1\C=C(C(O)=O)/C(=O)C2=C1C(=C(N3CCNC(C)C3)C(=C2)F)F (stereo unspecified)

90.6
112
